Answer each item with its documented self-splicing fitness (ln).
- PROTOCOL: self-splicing fitness, log relative to wild type (ln ratio); higher = more splicing; Tetrahymena group I intron in knt gene, E. coli kanamycin selection, DiMSum; sequences stand for … in CUCUCU…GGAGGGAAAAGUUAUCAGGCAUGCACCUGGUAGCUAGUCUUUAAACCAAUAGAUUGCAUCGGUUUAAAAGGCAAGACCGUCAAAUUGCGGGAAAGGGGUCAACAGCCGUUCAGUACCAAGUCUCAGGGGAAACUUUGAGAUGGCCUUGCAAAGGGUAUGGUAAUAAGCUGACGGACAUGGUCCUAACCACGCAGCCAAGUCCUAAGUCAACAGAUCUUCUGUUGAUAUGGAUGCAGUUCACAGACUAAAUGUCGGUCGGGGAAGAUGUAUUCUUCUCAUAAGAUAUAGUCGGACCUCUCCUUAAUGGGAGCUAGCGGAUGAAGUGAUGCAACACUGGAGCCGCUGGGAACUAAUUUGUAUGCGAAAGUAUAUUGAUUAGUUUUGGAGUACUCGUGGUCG;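 further: selection with 25 µg/mL kanamycin versus none on LB agar overnight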
- TEST CONDITIONS: 30 °C
The answer should be written as a number, with no unit following it.

input: Note down self-splicing fitness (ln) recorded for CCAUAGCAAUAUUACGCGUA
output: -3.19

input: Note down self-splicing fitness (ln) recorded for GUCUAGCAAUAUUACGGUGU
output: -0.578

input: Note down self-splicing fitness (ln) recorded for AUGUAGCAAUAUUACGUUGU
output: -3.85

input: Note down self-splicing fitness (ln) recorded for UAGCAGCAAUAUUACGUAAG
output: -1.91

input: Note down self-splicing fitness (ln) recorded for CCGGAGCAAUAUUACGGGAC
output: -3.11

input: Note down self-splicing fitness (ln) recorded for AUCCAGCAAUAUUACGCGCU
output: -3.57

input: Note down self-splicing fitness (ln) recorded for UCGUAGCAAUAUUACGUUAU
output: -4.46

input: Note down self-splicing fitness (ln) recorded for UUCCAGCAAUAUUACGCUCU
output: -3.04

input: Note down self-splicing fitness (ln) recorded for GCGAAGCAAUAUUACGCAGG
output: -3.06

input: Note down self-splicing fitness (ln) recorded for UCAUAGCAAUAUUACGCGUU
output: -3.38

input: Note down self-splicing fitness (ln) recorded for UGCUAGCAAUAUUACGAUCC
output: -0.317

input: Note down self-splicing fitness (ln) recorded for ACAUAGCAAUAUUACGCAUC
output: -3.98

input: Note down self-splicing fitness (ln) recorded for GAAAAGCAAUAUUACGGUAG
output: -3.24

input: Note down self-splicing fitness (ln) recorded for CAUAAGCAAUAUUACGUGCG
output: -1.15

input: Note down self-splicing fitness (ln) recorded for AGCGAGCAAUAUUACGUGGG
output: -2.35

input: Note down self-splicing fitness (ln) recorded for GCGUAGCAAUAUUACGCGUA
output: -2.83

input: Note down self-splicing fitness (ln) recorded for UUCGAGCAAUAUUACGUAAU
output: -2.06

input: Note down self-splicing fitness (ln) recorded for GUAUAGCAAUAUUACGUUUC
output: -3.37

input: Note down self-splicing fitness (ln) recorded for CAGCAGCAAUAUUACGUGCA
output: -1.03

input: Note down self-splicing fitness (ln) recorded for GUUAAGCAAUAUUACGGACU
output: -2.88

input: Note down self-splicing fitness (ln) recorded for CAACAGCAAUAUUACGAGUG
output: -1.59

input: Note down self-splicing fitness (ln) recorded for UAUAAGCAAUAUUACGACGU
output: -1.12

input: Note down self-splicing fitness (ln) recorded for GCAAAGCAAUAUUACGCUGA
output: -2.59

input: Note down self-splicing fitness (ln) recorded for UACUAGCAAUAUUACGGGAC
output: -3.54

input: Note down self-splicing fitness (ln) recorded for CGGUAGCAAUAUUACGGACU
output: -1.25

input: Note down self-splicing fitness (ln) recorded for AAGGAGCAAUAUUACGGAAG
output: -3.7

input: Note down self-splicing fitness (ln) recorded for GUUCAGCAAUAUUACGAUCA
output: -1.81

input: Note down self-splicing fitness (ln) recorded for CUACAGCAAUAUUACGUUGU
output: -3.66

input: Note down self-splicing fitness (ln) recorded for CGACAGCAAUAUUACGUUUA
output: -1.81

input: Note down self-splicing fitness (ln) recorded for CCAGAGCAAUAUUACGAAGC
output: -3.1

input: Note down self-splicing fitness (ln) recorded for CUAGAGCAAUAUUACGGUGA
output: -3.58

input: Note down self-splicing fitness (ln) recorded for UAAUAGCAAUAUUACGUACG
output: -2.13

input: Note down self-splicing fitness (ln) recorded for GAUAAGCAAUAUUACGGUGC
output: -2.8

input: Note down self-splicing fitness (ln) recorded for UAGCAGCAAUAUUACGUUGG
output: -2.36

input: Note down self-splicing fitness (ln) recorded for UAUCAGCAAUAUUACGCUCG
output: -0.0189

input: Note down self-splicing fitness (ln) recorded for CAUAAGCAAUAUUACGCGGA
output: -3.61

input: Note down self-splicing fitness (ln) recorded for AUUCAGCAAUAUUACGCCUU
output: -0.723

Just for reference, the supplement of paper PMC7877785 is where these values come from.
